Each entry below lists one item and its recorded Replicate_2 value.
- Assayed Target: SARS-CoV-2 3CLpro (Severe acute respiratory syndrome coronavirus 2, UniProt P0DTD1)
- Test Summary: biochemical
- Format: biochemical
- Parameters: unit not given here
Experimental Readout: Replicate_2

>  <Molecule>
Cn1c(=O)c2[nH]cnc2n(C)c1=O.Cn1c(=O)c2[nH]cnc2n(C)c1=O.NCCN

>  <Experimental Readout>
Replicate_2

>  <Value>
-0.4553

$$$$
>  <Molecule>
O=c1onc2n1-c1cc(Br)ccc1OC2

>  <Experimental Readout>
Replicate_2

>  <Value>
3.612

$$$$
>  <Molecule>
CCN(CC)CC.Nc1ncnc2c1ncn2C1OC2COP(O)(=S)O[C@@H]2[C@@H]1O (stereo partly drawn)

>  <Experimental Readout>
Replicate_2

>  <Value>
3.042

$$$$
>  <Molecule>
COc1cccc(-c2cc(=O)c3ccccc3o2)c1N

>  <Experimental Readout>
Replicate_2

>  <Value>
1.402

$$$$
>  <Molecule>
Cl.O=S(=O)(c1cccc2c(I)cccc12)N1CCCNCC1

>  <Experimental Readout>
Replicate_2

>  <Value>
4.928

$$$$
>  <Molecule>
C[C@@H](N)Cc1cnc[nH]1.Cl.Cl

>  <Experimental Readout>
Replicate_2

>  <Value>
-0.08051

$$$$
>  <Molecule>
CN(C)CCC(c1ccc(Cl)cc1)c1ccccn1.O=C(O)/C=C\C(=O)O (racemic) [(±)-Chlorpheniramine maleate]

>  <Experimental Readout>
Replicate_2

>  <Value>
-0.472

$$$$
>  <Molecule>
CC(N)Cc1c[nH]c2ccc(OCc3cccs3)cc12 (stereo not drawn)

>  <Experimental Readout>
Replicate_2

>  <Value>
3.4189

$$$$
>  <Molecule>
O=C(O)/C(=C/c1c(C(=O)O)[nH]c2cc(Cl)cc(Cl)c12)c1ccccc1

>  <Experimental Readout>
Replicate_2

>  <Value>
5.657

$$$$

Values were extracted from paper PMC7587356.
